# target_entity: INDY (Homo sapiens)
# Sequence (Q86YT5 whole entry): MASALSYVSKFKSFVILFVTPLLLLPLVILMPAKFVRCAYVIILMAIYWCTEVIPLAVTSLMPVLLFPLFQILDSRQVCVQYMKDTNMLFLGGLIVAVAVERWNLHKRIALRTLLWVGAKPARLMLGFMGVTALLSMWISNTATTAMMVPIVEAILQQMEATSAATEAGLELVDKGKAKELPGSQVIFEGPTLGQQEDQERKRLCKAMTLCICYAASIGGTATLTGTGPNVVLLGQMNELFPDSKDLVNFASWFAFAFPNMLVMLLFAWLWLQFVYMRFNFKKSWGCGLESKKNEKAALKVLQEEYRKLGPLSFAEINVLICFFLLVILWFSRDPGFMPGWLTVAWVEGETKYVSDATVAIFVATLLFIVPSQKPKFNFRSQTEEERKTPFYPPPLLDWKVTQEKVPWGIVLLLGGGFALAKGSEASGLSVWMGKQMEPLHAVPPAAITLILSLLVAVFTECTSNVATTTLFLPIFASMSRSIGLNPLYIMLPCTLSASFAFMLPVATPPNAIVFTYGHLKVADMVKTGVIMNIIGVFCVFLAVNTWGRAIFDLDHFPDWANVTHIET
# protocol_text: 14C-citrate uptake in HEK293 cells overexpressing recombinant human INDY (NaCT)
# Format: cell-based
# Design: expressed in transfected cells; host or cells: HEK293
Answer each item with its documented log10 of IC50.
Friendly reminder: values = log10 of IC50, unit nM.

Field: log10 of IC50 (INDY (Homo sapiens)). Entry: "C/C(=N\O)c1cccc(S(=O)(=O)N2CCC(C(=O)NCc3ccccc3F)CC2)c1"
4.31

Field: log10 of IC50 (INDY (Homo sapiens)). Entry: "COC(=O)c1cccc(CNC(=O)C2CCN(S(=O)(=O)c3cc(Cl)cc(Cl)c3)CC2)c1"
3.76

Field: log10 of IC50 (INDY (Homo sapiens)). Entry: "O=C(NCc1ccccc1F)C1CCN(S(=O)(=O)c2ccc(-c3ccccc3)cc2)CC1"
2.90

Field: log10 of IC50 (INDY (Homo sapiens)). Entry: "O=C(NCc1ccccc1F)C1CCN(S(=O)(=O)/C=C/c2ccccc2)CC1"
3.46

Field: log10 of IC50 (INDY (Homo sapiens)). Entry: "O=C(NCc1ccccn1)C1CCN(S(=O)(=O)c2ccc(Cl)cc2Cl)CC1"
3.38

Field: log10 of IC50 (INDY (Homo sapiens)). Entry: "Nc1ccc(CNC(=O)C2CCN(S(=O)(=O)c3cc(Cl)cc(Cl)c3)CC2)cc1"
3.26

Field: log10 of IC50 (INDY (Homo sapiens)). Entry: "O=C(NCc1ccccn1)C1CCN(S(=O)(=O)c2cc(Cl)cc(C3CC3)c2)CC1"
2.48
